Each entry below carries its recorded IC50.
Molecular target: TRKA (Homo sapiens (Human), UniProt P04629)
Sequence (P04629 441-796): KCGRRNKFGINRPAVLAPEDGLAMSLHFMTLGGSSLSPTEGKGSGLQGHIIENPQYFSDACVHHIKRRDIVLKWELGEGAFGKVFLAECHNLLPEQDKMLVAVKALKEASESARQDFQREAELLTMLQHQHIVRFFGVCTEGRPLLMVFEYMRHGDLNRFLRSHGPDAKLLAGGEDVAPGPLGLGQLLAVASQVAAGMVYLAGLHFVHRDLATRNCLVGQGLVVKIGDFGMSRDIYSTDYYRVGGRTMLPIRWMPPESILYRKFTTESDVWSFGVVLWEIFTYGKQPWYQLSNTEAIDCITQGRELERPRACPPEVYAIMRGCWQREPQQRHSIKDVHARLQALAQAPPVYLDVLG
Experiment: Isolated TRK enzyme assay (HTRF KinEASE-TK), TRKA
Format: biochemical
Conditions: read-out: Trka enzyme (IC50)

# smi, measurement-target, IC50 / nM
rows = [
    ("CC(C)n1cc(C(=O)c2cncc(NC(=O)c3ccn4cncc4c3)c2)c2cncnc21", "TRKA (Homo sapiens (Human), UniProt P04629)", 2640),
    ("CC(C)n1cc(C(=O)c2cncc(NC(=O)c3cc4cc[nH]c4cn3)c2)c2cncnc21", "TRKA (Homo sapiens (Human), UniProt P04629)", 135),
    ("CC(C)n1cc(C(=O)c2cncc(NC(=O)Cc3ccc(F)cc3)c2)c2cncnc21", "TRKA (Homo sapiens (Human), UniProt P04629)", 55.6),
    ("CC(C)n1cc(C(=O)c2cncc(NC(=O)c3ccc4cnnc-4[nH]3)c2)c2cncnc21", "TRKA (Homo sapiens (Human), UniProt P04629)", 67),
]

Hello, the source for this data is patent US8846698B2, in case you need it.
